These data points were gathered from patent US7923434B2.

IC50 overview
# TESTED_TARGET: hTrxRSec→Cys (Homo sapiens, UniProt Q16881)
# Sequence (Q16881 with tags, fused parts or gaps limits assumed): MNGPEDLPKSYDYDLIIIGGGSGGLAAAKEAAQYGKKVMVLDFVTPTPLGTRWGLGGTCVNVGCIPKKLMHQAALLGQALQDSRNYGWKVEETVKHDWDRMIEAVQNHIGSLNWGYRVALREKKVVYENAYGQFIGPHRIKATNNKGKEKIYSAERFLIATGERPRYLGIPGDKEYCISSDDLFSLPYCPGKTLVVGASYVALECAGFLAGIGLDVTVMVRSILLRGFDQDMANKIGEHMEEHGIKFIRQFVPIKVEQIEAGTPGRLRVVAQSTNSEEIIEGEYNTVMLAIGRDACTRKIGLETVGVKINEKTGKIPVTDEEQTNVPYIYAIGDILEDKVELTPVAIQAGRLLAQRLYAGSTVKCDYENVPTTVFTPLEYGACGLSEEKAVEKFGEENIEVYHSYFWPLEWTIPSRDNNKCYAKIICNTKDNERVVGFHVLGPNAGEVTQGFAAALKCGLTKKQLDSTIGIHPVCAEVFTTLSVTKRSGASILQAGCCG
# RUN_DESCRIPTION: Test for reduction of Trx (hTrxC72S) by TrxR, mutant hTrxR-Mut
# Type: biochemical
# MEASUREMENT_PARAMETERS: 20 μM hTrxC72S; 10 min pre-incubation with 100 μM NADPH; enzyme 1.8 μM
Number in nM, nothing else.

Illustrative cases are given below, each with its answer.
COMPOUND: [Cl][Au][PH]1(c2ccccc2)C(c2ccccn2)=C2CCCCC2=C1c1ccccn1
MEASURE_UNIT: nM
VAL: 800
//
COMPOUND: [Cl][Au][PH]1(c2ccccc2)C(c2ccccn2)=C2CCCCC2=C1c1cccs1
MEASURE_UNIT: nM
VAL: 1400

IC50 for [Cl][Pt-2]1([Cl])[n+]2ccccc2C2=C3CCCCC3=C(c3cccs3)[P+]21c1ccccc1 (stereo not drawn) ?
2300

----------
IC50 overview
# TESTED_TARGET: hTrxRSec→Cys (Homo sapiens, UniProt Q16881)
# Sequence (Q16881 with tags, fused parts or gaps isoform Q16881-5 limits assumed): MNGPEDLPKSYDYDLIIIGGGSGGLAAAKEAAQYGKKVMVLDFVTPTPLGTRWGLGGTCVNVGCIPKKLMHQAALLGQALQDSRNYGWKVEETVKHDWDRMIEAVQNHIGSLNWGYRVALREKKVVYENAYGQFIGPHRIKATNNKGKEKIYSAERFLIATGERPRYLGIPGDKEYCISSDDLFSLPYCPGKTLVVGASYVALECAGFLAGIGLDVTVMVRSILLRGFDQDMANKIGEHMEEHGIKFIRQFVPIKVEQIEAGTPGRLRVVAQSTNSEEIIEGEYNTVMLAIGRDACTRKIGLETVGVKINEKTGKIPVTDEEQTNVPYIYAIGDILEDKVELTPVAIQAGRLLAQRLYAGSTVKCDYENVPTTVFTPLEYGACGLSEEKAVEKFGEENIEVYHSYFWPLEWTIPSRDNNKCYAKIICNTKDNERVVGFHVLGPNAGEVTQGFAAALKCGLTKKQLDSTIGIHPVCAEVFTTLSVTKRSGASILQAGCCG
# RUN_DESCRIPTION: Test for reduction of DTNB by TrxR, mutant hTrxR-Mut
# Type: biochemical
# MEASUREMENT_PARAMETERS: 3 mM DTNB; 10 min pre-incubation with 200 μM NADPH; enzyme 90.6 nM
Number in nM, nothing else.

Illustrative cases are given below, each with its answer.
MOLECULE: [Cl][Pt-2]1([Cl])[n+]2ccccc2C2=C3CCCCC3=C(c3cccs3)[P+]21c1ccccc1 (stereo not drawn)
IC50 / nM: 24000

MOLECULE: [Cl][Au][PH]1(c2ccccc2)C(c2ccccn2)=C2CCCCC2=C1c1cccs1
IC50 / nM: 2500

IC50 for [Cl][Au][PH]1(c2ccccc2)C(c2ccccn2)=C2CCCCC2=C1c1ccccn1 ?
2500

----------
# TESTED_TARGET: WT hTrxR (Homo sapiens, UniProt Q16881)
# Sequence (Q16881 151-649 limits assumed): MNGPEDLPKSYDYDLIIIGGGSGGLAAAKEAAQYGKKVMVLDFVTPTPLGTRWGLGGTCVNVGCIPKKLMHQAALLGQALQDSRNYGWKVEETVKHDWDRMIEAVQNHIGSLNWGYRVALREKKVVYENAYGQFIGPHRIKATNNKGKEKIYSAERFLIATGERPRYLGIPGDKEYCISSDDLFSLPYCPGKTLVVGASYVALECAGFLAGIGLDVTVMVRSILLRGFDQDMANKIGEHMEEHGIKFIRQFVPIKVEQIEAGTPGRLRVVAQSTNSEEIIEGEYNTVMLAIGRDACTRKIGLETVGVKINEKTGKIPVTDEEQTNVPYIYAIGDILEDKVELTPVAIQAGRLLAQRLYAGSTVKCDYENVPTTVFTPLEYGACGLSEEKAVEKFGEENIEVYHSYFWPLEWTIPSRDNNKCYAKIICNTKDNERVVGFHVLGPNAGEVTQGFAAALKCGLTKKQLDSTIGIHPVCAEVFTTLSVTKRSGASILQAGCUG
# RUN_DESCRIPTION: Test for reduction of Trx (hTrxC72S) by TrxR, wild type
# Assay type: biochemical
# MEASUREMENT_PARAMETERS: 20 μM hTrxC72S; 10 min pre-incubation with 100 μM NADPH; enzyme 24 nM
IC50 overview
Number in nM, nothing else.

COMPOUND: [Cl][Pt-2]1([Cl])[n+]2ccccc2C2=C3CCCCC3=C(c3cccs3)[P+]21c1ccccc1 (stereo not drawn)
IC50 [nM]: 8

COMPOUND: [Cl][Au][PH]1(c2ccccc2)C(c2ccccn2)=C2CCCCC2=C1c1cccs1
IC50 [nM]: 7

Observed IC50 on WT hTrxR (Homo sapiens, UniProt Q16881) for [Cl][Au][PH]1(c2ccccc2)C(c2ccccn2)=C2CCCCC2=C1c1ccccn1 , please.
7

----------
# System: NCH82 human glioblastoma cell line
# RUN_DESCRIPTION: BrdU in vitro proliferation test, NCH82
# Format: cell-based
# MEASUREMENT_PARAMETERS: BrdU incorporation
VALUE_KIND: IC50 (µM)
Number in µM, nothing else.

IC50 for O=NN(CCCl)C(=O)NCCCl ?
385

----------
# TESTED_TARGET: UniProt:P00390
# Sequence (P00390 45-522 limits assumed): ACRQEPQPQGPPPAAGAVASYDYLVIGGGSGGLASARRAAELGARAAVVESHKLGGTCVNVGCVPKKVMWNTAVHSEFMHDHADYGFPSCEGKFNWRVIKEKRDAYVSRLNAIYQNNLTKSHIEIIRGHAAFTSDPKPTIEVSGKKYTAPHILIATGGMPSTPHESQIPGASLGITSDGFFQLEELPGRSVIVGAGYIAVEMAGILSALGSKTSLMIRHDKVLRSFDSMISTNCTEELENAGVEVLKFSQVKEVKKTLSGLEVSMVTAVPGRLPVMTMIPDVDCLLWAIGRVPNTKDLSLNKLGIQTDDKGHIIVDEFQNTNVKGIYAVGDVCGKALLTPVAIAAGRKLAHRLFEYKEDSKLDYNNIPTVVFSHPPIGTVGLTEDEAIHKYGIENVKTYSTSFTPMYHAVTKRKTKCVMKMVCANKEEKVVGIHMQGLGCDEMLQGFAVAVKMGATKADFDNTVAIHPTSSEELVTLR
VALUE_KIND: Kd (nM)
Number in nM, nothing else.

Kd for [Cl][Au][PH]1(c2ccccc2)C(c2ccccn2)=C2CCCCC2=C1c1ccccn1 ?
460

----------
Recorded below: IC50, system human GR (Homo sapiens).
Number in nM, nothing else.

Observed IC50 on human GR (Homo sapiens) for [Cl][Au][PH]1(c2ccccc2)C(c2ccccn2)=C2CCCCC2=C1c1ccccn1 , please.
1

Observed IC50 on human GR (Homo sapiens) for [Cl][Pt-2]1([Cl])[n+]2ccccc2C2=C3CCCCC3=C(c3cccs3)[P+]21c1ccccc1 (centres unmarked) , please.
400
